Biological target: FLT3-D835Y Ba/F3 cells (Homo sapiens, UniProt P36888, D835Y, cells depend on it)
Sequence (P36888 1-993 D835Y): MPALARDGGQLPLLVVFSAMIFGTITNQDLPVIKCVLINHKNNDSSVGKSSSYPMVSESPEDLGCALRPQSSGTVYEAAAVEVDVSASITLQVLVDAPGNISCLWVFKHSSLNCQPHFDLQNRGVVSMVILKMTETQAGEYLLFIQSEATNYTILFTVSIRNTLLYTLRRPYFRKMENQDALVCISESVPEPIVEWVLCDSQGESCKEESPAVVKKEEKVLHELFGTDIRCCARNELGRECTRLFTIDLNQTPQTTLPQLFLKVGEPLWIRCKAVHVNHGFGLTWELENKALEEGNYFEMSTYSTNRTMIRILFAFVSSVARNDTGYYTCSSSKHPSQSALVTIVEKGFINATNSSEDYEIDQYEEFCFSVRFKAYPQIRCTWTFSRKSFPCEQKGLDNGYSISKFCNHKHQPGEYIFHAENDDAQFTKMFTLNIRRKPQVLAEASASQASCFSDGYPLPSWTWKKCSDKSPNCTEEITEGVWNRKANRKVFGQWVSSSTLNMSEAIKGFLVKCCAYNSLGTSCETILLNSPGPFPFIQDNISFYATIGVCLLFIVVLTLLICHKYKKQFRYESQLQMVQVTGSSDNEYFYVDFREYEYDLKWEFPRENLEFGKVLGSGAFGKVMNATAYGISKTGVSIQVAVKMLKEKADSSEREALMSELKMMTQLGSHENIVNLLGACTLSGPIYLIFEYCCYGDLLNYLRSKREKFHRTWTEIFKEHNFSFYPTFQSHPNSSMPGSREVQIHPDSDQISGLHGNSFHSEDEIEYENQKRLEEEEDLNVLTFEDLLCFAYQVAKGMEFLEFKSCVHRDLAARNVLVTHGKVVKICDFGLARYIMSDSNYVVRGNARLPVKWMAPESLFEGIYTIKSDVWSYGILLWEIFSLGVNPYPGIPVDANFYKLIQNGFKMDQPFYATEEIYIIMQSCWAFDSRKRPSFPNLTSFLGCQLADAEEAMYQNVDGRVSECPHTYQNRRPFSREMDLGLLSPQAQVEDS
Test: Growth inhibitory activity against Ba/F3 cell line
Format: cell-based
Settings: Ba/F3 expressing FLT3-D835Y; 72 hours; cell titer glo; read-out: IC50 (uM) FLT3-D835Y
Protocol: A Ba/F3 cell line expressing an FLT3 mutation gene was cultured in a culture solution including 90% RPMI, 10% FBS, and an antibiotic (Welgene). […] 50 uL of a cell titer glo (Promega) solution was added thereto, the resulting mixture was stored at room temperature for 10 minutes, and then the light emission intensity was measured by using a reader (Envision, PerkinElmer). […]
Structures can show the parent of a compound that is named as a salt.
Readout kind: log10 of GI50 (log10 of the value in µM)

> print(dat)
                                   compound   readout.kind  result
1  NC(=O)Nc1cc(C#Cc2ccccc2)sc1C(=O)N[C@H]1CCCNC1  log10 of GI50   -2.70
2  CS(=O)(=O)N1CCC(n2cc(C#Cc3cc(NC(N)=O)c(C(=O)N[C@H]4CCCCNC4)s3)cn2)CC1 [Example 47, trifluoroacetate]  log10 of GI50   -0.27
3  Cn1cc(C#Cc2cc(NC(N)=O)c(C(=O)N[C@H]3CCCNC3)s2)cn1  log10 of GI50   -0.57
4  COCCn1cc(C#Cc2cc(NC(N)=O)c(C(=O)N[C@H]3CCCCNC3)s2)cn1 [Example 45, trifluoroacetate]  log10 of GI50   -0.08
5  NC(=O)Nc1cc(C#Cc2cccc(F)c2)sc1C(=O)N[C@H]1CCCCNC1  log10 of GI50   -0.64
6  NC(=O)Nc1cc(C#Cc2cn[nH]c2)sc1C(=O)N[C@H]1CCCCNC1 [Example 42, trifluoroacetate]  log10 of GI50    0.60
7  CS(=O)(=O)N1CCC(n2cc(C#Cc3cc(NC(N)=O)c(C(=O)N[C@H]4CCCNC4)s3)cn2)CC1  log10 of GI50   -0.74
8  NC(=O)Nc1cc(C#Cc2cccnc2)sc1C(=O)N[C@H]1CCCNC1  log10 of GI50   -1.30
